# tested_system: T1, human CD3 (human, UniProt P07766 23-207; P09693 23-182; P04234 22-171)
# T1 construct: whole, on cells; also called CD3 on Jurkat T cells; CD3 on primary human T cells
# test_summary: flow competition on Jurkat, 100 nM unlabeled mAb; competitor AF488-SP34.2 20 nM
recorded_endpoint: % residual fluorescence of labeled mAb (%)

F332-12F6 (antibody, mouse IgG2a, V domains shown, also called F332-12F6-2) VH: QVQLQQPGAELGKPGTSVKLSCKASGYTFTSYWIHWVKQRPGQGLEWIGNINPNSGSTNYNEKFKSKATLTVDKSSSTAYMQLSTLTSEDSAVYYCTRDISGQYYFDYWGQGTTLTVSS VL: DIVMSQSPSSLAVSAGEKVTMSCKSSQSLLNSRTRKSYLAWYQQKPGQSPKLLIYWASTRESGVPDRFTGSGSGTDFTLTISSVQAEDLAVYYCIQSYNLRTFGGGTKLEIK; 7
F332-7C5 (antibody, mouse IgG2a, V domains shown, also called F332-7C5-2; F332-7C5 (5E12, 10A8)) VH: QVQLQQPGAELGKPGTSVKLSCKASGYTFTSYWMHWVKQRPGQGLEWIGNINPSSGITNYNERFKNKATLTVDKSSTTAYMQLSILTSEDSAVYYCSRDISGQYYFNFWGQGTTLTVSS VL: DIVMSQSPSSLAVSAGEKVTMSCKSSQSLLNSRTRKNYLAWYQQKPGQSPKLLIYWASTRESGVPDRFTGTGSGTDFTLTISSVQAEDLAVYYCKQSYNLRTFGGGTKLEIK; 7
F332-7C9 (antibody, mouse IgG2a, V domains shown, also called F332-7C9-2; F332-7C9 (5C7, 7D10)) VH: QVQLQQSGPELVKPGASVRISCKASGYTFTSHYLHWVKQRPGQGFEWIGWIYPGDGNTRYNEKFKDRATLTADKSSSTAYLHLSSLTSEDSAVYFCARDAGYYFDYWGQGTTLAVSS VL: DIVMSQSPSSLAVSAGEKVTMSCKSSQSLLNSRTRKNYLAWYQQKPGQSLKVLIYWASTRESGVPDRFTGSGSGTDFTLTISSVQAEDLAVYYCKQSYSLRTFGGGTKLEIK; 9
